Recorded log10(2aPTT) by entry
- System: Plasma
- assay: Anticoagulant activity in human plasma assessed as concentration required to double the activated […] time incubated for 4 mins prior to CaCl2-challenge by fibrometry
- Assay type: functional
endpoint: log10(2aPTT) (log10 of the value in µM)

>  <smiles_code>
CN(C(=O)[C@@H]1Cc2ccccc2CN1C(=O)Cc1ccc(Cl)cc1)c1ccc(N2CCCCC2=O)cc1

>  <experimental_target>
Plasma

>  <endpoint>
log10(2aPTT)

>  <readout_value>
1.90

$$$$
>  <smiles_code>
CN(C(=O)[C@@H]1Cc2ccccc2CN1C(=O)Cc1ccc(Cl)cc1Cl)c1ccc(N2CCCCC2=O)cc1

>  <experimental_target>
Plasma

>  <endpoint>
log10(2aPTT)

>  <readout_value>
2.41

$$$$
>  <smiles_code>
O=C(Nc1ccc(N2CCOCC2=O)cc1)[C@@H]1CC=CCN1C(=O)Cc1ccc(Cl)cc1

>  <experimental_target>
Plasma

>  <endpoint>
log10(2aPTT)

>  <readout_value>
2.91

$$$$
>  <smiles_code>
O=C(Nc1ccc(N2CCOCC2=O)cc1)[C@@H]1Cc2ccccc2CN1C(=O)c1ccc(CCl)cc1

>  <experimental_target>
Plasma

>  <endpoint>
log10(2aPTT)

>  <readout_value>
2.79

$$$$
>  <smiles_code>
O=C(Nc1ccc(N2CCOCC2=O)cc1)[C@H]1Cc2ccccc2CN1C(=O)Cc1ccc(Cl)cc1

>  <experimental_target>
Plasma

>  <endpoint>
log10(2aPTT)

>  <readout_value>
1.31

$$$$

###

- experimental_target: Coagulation factor XI (Homo sapiens)
- Sequence (P03951 19-387 limits assumed): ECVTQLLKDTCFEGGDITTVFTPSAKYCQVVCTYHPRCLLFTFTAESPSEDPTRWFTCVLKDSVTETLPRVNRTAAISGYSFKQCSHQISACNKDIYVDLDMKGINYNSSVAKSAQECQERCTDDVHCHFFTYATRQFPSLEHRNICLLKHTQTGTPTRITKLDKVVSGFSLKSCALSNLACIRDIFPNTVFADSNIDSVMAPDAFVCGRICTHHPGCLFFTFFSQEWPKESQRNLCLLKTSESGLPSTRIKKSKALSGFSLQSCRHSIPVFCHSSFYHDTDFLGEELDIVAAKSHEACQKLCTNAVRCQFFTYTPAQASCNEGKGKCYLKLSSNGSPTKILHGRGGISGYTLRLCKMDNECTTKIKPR
- Sequence (P03951 388-625 limits assumed): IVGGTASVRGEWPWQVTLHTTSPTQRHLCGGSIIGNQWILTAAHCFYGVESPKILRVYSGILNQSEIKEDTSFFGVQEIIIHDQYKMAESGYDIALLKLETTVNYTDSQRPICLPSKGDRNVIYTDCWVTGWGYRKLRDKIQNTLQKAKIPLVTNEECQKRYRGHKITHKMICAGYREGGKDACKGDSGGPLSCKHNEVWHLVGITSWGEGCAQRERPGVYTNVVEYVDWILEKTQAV
pIC50: −log10 of the molar value.
endpoint: pIC50

>  <smiles_code>
O=C(Nc1ccc(N2CCOCC2=O)cc1)[C@H]1Cc2ccccc2CN1C(=O)Cc1ccc(Cl)cc1

>  <experimental_target>
Coagulation factor XI (Homo sapiens)

>  <readout_value>
< 3.30

$$$$

###

- experimental_target: Coagulation factor X (Homo sapiens, UniProt P00742)
- Sequence (P00742 41-179 limits assumed): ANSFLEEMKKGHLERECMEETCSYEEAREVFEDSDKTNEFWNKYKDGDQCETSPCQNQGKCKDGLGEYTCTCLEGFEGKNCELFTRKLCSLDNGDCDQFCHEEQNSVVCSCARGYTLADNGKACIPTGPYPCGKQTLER
- Sequence (P00742 235-488 limits assumed): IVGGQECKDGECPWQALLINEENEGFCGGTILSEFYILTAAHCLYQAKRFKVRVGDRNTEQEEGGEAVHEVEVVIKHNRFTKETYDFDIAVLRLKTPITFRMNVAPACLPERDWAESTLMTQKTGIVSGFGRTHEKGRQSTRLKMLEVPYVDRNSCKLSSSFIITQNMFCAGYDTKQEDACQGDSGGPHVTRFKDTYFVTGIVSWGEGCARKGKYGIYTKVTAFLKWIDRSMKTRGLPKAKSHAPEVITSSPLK
Doc: threshold 20 µM (exclusive). Items with IC50 beneath it return true (1); others return false (0).

>  <smiles_code>
O=C(Nc1ccc(Cl)cc1)[C@@H]1Cc2ccccc2CN1C(=O)OCc1ccccc1

>  <group>
false (0)

$$$$
>  <smiles_code>
COc1ccc(C(=O)N2Cc3ccccc3C[C@H]2C(=O)N(C)c2ccc(N3CCCCC3=O)cc2)cc1

>  <group>
true (1)

$$$$
>  <smiles_code>
CN(C(=O)[C@@H]1Cc2ccccc2CN1C(=O)Cc1ccc([N+](=O)[O-])cc1)c1ccc(N2CCCCC2=O)cc1

>  <group>
false (0)

$$$$
>  <smiles_code>
COc1ccc(CCC(=O)N2Cc3ccccc3C[C@H]2C(=O)N(C)c2ccc(N3CCOCC3=O)cc2)cc1

>  <group>
false (0)

$$$$
>  <smiles_code>
COc1ccc(CC(=O)N2Cc3ccccc3C[C@H]2C(=O)N(C)c2ccc(N3CCCCC3=O)cc2)cc1

>  <group>
false (0)

$$$$
>  <smiles_code>
CN(C(=O)[C@@H]1Cc2ccccc2CN1C(=O)Cc1ccc(Cl)c(Cl)c1)c1ccc(N2CCCCC2=O)cc1

>  <group>
true (1)

$$$$
>  <smiles_code>
O=C(Nc1ccc(N2CCOCC2=O)cc1)[C@H]1CCCCN1C(=O)Cc1ccc(Cl)cc1

>  <group>
false (0)

$$$$
>  <smiles_code>
Cc1ccc(CC(=O)N2Cc3ccccc3C[C@H]2C(=O)N(C)c2ccc(N3CCCCC3=O)cc2)cc1

>  <group>
true (1)

$$$$
>  <smiles_code>
CN(C(=O)[C@@H]1Cc2ccccc2CN1C(=O)Cc1ccc(Cl)cc1)c1ccc(N2CCOCC2=O)cc1

>  <group>
true (1)

$$$$
>  <smiles_code>
CC(C)N(C(=O)[C@@H]1Cc2ccccc2CN1C(=O)OCc1ccccc1)c1ccc(N2CCCCC2=O)cc1

>  <group>
true (1)

$$$$
>  <smiles_code>
COc1ccc(CCC(=O)N2Cc3ccccc3C[C@H]2C(=O)N(C)c2ccc(N3CCOCC3=O)cc2)c(OC)c1

>  <group>
false (0)

$$$$
>  <smiles_code>
Cc1ccc(C(=O)N2Cc3ccccc3C[C@H]2C(=O)N(C)c2ccc(N3CCCCC3=O)cc2)cc1

>  <group>
false (0)

$$$$
>  <smiles_code>
CN(C(=O)[C@H]1CCCN(C(=O)Cc2ccc(Cl)cc2)C1)c1ccc(N2CCCCC2=O)cc1

>  <group>
false (0)

$$$$
>  <smiles_code>
O=C(Nc1ccc(N2CCOCC2=O)cc1)[C@@H]1Cc2ccccc2CN1C(=O)OCc1ccccc1

>  <group>
true (1)

$$$$
>  <smiles_code>
CN(C(=O)[C@@H]1Cc2ccccc2CN1C(=O)c1cc(-c2ccc(Br)cc2)cs1)c1ccc(N2CCOCC2=O)cc1

>  <group>
false (0)

$$$$
>  <smiles_code>
CN(C(=O)[C@@H]1Cc2ccccc2CN1C(=O)Cc1ccc(C(F)(F)F)cc1)c1ccc(N2CCCCC2=O)cc1

>  <group>
false (0)

$$$$
>  <smiles_code>
O=C(Nc1ccc(N2CCCCC2=O)cc1)[C@@H]1Cc2ccccc2CN1C(=O)OCc1ccccc1

>  <group>
true (1)

$$$$

###

- experimental_target: Prothrombin (Homo sapiens, UniProt P00734)
pIC50: −log10 of the molar value.

>  <smiles_code>
O=C(Nc1ccc(N2CCOCC2=O)cc1)[C@H]1Cc2ccccc2CN1C(=O)Cc1ccc(Cl)cc1

>  <pIC50>
< 3.30

$$$$
